- testDescription: NCI Yeast Anticancer Drug Screen. Data for the mlh1 strain (AID 171);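 also: 0% = growth of vehicle-treated control cultures of the same strain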
- conditionSummary: S. cerevisiae mlh1 strain growth inhibition; at 11.0 µM; stronger effect = higher value
About 79,000 compounds went through this panel and 15% of them were active in at least one assay; those are over-represented in the sample as a whole.
Listed compounds paired with reported growth inhibition
Answer with a number only, understood to be in %.

Consider the worked cases shown below.
Task: Give recorded growth inhibition. COc1cc(OC)c(CSCC(NC(=O)OCC2c3ccccc3-c3ccccc32)C(=O)O)c(OC)c1 (stereo unspecified)
Result: 62

Task: Indicate its recorded growth inhibition; the compound in question is C=CC(C)(C)N1C(=O)C(C(C)=O)=C(O)C1Cc1c[nH]c2ccccc12 (stereo unspecified)
Result: 0

Consider now this further compound.
Task: Output growth inhibition of "NC(=S)N1N=C2c3ccccc3CC[C@@H]2[C@@H]1c1ccccc1"
Result: -8

----------
- testDescription: NCI Yeast Anticancer Drug Screen. Data for the mec2-1 strain (AID 157)
- conditionSummary: S. cerevisiae mec2-1 strain, at 3.7 µM, stronger effect = higher value
This is part of a sample that, as a whole, favours compounds with a hit. Of some 79,000 tested, about 15% had one in any assay.
growth inhibition reference
Please state the figure in %; there is no need to write the unit.

Task: Indicate the recorded growth inhibition value for this molecule: Cc1cccc2c1C1c3c(C)cccc3C(CC(=O)O)CC1CC2 (stereo unspecified)
Result: 61

Task: // Input: O=C1CCC(Cc2ccccc2)CN1 (stereo unspecified) . Output its growth inhibition only.
Result: -1

Task: For the molecule "Fc1ccc(Nc2ccc3ccccc3c2)cc1" , report growth inhibition.
Result: 0

Task: Report measured growth inhibition; entry is "Cc1c(Cl)c(C)c(Cl)c(O)c1Cl"
Result: 7

Task: Let me know recorded growth inhibition for CC(=O)/C(=C\c1ccc(Cl)c(Cl)c1)C(=O)C(C)CN(C)C (stereo unspecified) , thanks.
Result: 29

Task: Please give measured growth inhibition of the following entry: "Cc1ccc(S(=O)(=O)NC(=O)C2C(=O)CC3(CCCCC3)CC2=O)cc1"
Result: -30

----------
- testDescription: NCI Yeast Anticancer Drug Screen. Data for the CLN2oe strain (AID 163);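 also: 0% = growth of vehicle-only control cultures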
- conditionSummary: S. cerevisiae CLN2oe strain, at 33.0 µM, stronger effect = higher value
This is part of a sample that, as a whole, favours compounds with a hit. Of some 79,000 tested, about 15% had one in any assay.
Class boundaries, taken from values of growth inhibition, are as follows: low = under 40%, medium = from 40% up to 80%, high = 80% and over

Task: Exercise: read the entry "CSC(=S)N/N=C/c1ccccc1" and state which class it falls under.
Result: low

More entries:
Task: For this compound, which bin applies? "O=c1c2ccccc2nc(-c2cccc([N+](=O)[O-])c2)n1O"
Result: medium

Task: Please classify: COc1cc2c(cc1OC)[C@@H](Nc1ccc(C#N)cc1)C1COC(=O)[C@@H]1C2c1cc(OC)c(O)c(OC)c1 (stereo partly specified)
Result: low

Task: Which category does the recorded growth inhibition put "CN(C)CC(CN(C)C)C(=O)/C=C/c1ccc(Cl)cc1Cl" in?
Result: high

Task: Class? Entry: O=C(NCCCCN1CC2CCCC2C1)C(C1CCCCC1)C1CCCCC1 (stereo unspecified)
Result: high

Task: Textbook exercise: identify the category of the compound given here, "CCN(CC)C(=S)SC(=S)N(CC)CC" , according to its measured value.
Result: medium

Task: Which category does the recorded growth inhibition put "O=C(C(Cl)=C(N1CCCCC1)N1CCCCC1)C(Cl)Cl" in?
Result: low

Task: State the class of the compound shown: "NNc1ccccc1-c1nc2ccccc2[nH]1"
Result: low

Task: State the band of CCC[CH2][Ge]([CH2]CCC)([CH2]CCC)[O]C(=O)C(O)c1ccccc1 (stereo unspecified)
Result: high

Task: Tag the class for "COc1ccc(/C=C2\SC(=S)N(/C=C3\C(=O)N(c4ccccc4)N=C3C)C2=O)cc1OC"
Result: medium

Task: Exercise: read the entry "Oc1ccc(C2(c3ccc(O)cc3)CCCC2)cc1" and state which class it falls under.
Result: high

----------
The following molecules are shown together with reported growth inhibition values.
- testDescription: NCI Yeast Anticancer Drug Screen. Data for the bub3 strain (AID 167)
- conditionSummary: S. cerevisiae bub3 mutant strain, at 5.0 µM (retest, dose inferred, filed as 0.5), stronger effect = higher value
About 79,000 compounds went through this panel and 15% of them were active in at least one assay; those are over-represented in the sample as a whole.
Report the figure in % without appending any unit label.

Solved entries (count: 5):
Task: Return growth inhibition (reported value) for this molecule: "CCC(C)(C)c1ccc(Oc2ccccc2)c(N)c1"
Result: 36

Task: Answer with the recorded growth inhibition of COc1cccc(C(NC2=NCCC=N2)c2cc3c(cc2O)OCO3)c1O (configuration not stated) only.
Result: -57

Task: Dear colleague, please send me the reported growth inhibition for CC1(C)C(O)OC(O)C1(C)C (configuration not stated) when you can.
Result: -8

Task: Fill in reported growth inhibition for this entry: "O=C1Nc2ccc(Br)cc2C1=Nc1ccc(Cl)cc1"
Result: 28

Task: Give the reported growth inhibition for this molecule. "O=C1c2ccccc2C(=O)c2c(O)c(NCCNCCO)cc(O)c21"
Result: 39

More entries:
Task: Give growth inhibition for "CCc1c(Cl)c(C)c(Cl)c(O)c1Cl"
Result: 16

Task: Assign growth inhibition to the following record: CC(=O)O[C@H]1CC[C@@]2(C)C(=CC[C@@H]3C2CC[C@]2(C)C(=O)NC(=O)CC32)C1 (some centres not stated)
Result: 1

Task: For the molecule "CCOC(=S)SSSC(=S)OCC" , report growth inhibition.
Result: -3

Task: Tell me growth inhibition reported for "COC(=O)c1cnc(Cl)c([N+](=O)[O-])c1"
Result: 24

Task: In one line, give reported growth inhibition of the entry CCC1(O)C(=O)OCc2c1cc1n(c2=O)Cc2cc3c(N)cccc3nc2-1 (configuration not stated) .
Result: 14

Task: Dear colleague, please send me the reported growth inhibition for "COc1ccc(C(=O)/C=C\c2ccc(Cl)c(Cl)c2)cc1" when you can.
Result: 12

Task: # return recorded growth inhibition for entry "Cc1cc(C)c(S(=O)(=O)c2ccc(Cl)cc2)c(C)c1"
Result: 5

----------
- testDescription: NCI Yeast Anticancer Drug Screen. Data for the sgs1 mgt1 strain (AID 161);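 also: 0% = growth of cultures given vehicle only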
- conditionSummary: S. cerevisiae sgs1 mgt1 strain, at 50.0 µM
Compounds without any hit were thinned out: in the full panel of roughly 79,000, 15% have a hit. Active and inactive are the calls of the source. No stated cut-off is given here; in the data, active means growth inhibition above about 70%; inactive means the rest.
One label from this list, please: Y for active, N for inactive

As a guide, the following entries are already answered.
Task: Which result was noted for this molecule in the test: CC(CC/C(=N/O)c1ccccc1)(CC/C(=N\O)c1ccccc1)[N+](=O)[O-] (centres undefined)
Result: N

Task: # fetch the recorded call for "CCCCCCCCCCCCCCN" here
Result: Y

Task: // return assay outcome for "CCCCCCNCCCNc1c2cc(OC)ccc2nc2cccc([N+](=O)[O-])c12"
Result: Y

Task: Could you please tell me the result logged for "Nc1cc2ccccc2cc1N" in this assay?
Result: Y

Task: Query: recorded result category for "COC(=N)c1ccc(O)c(C)c1" in this test
Result: N

---
Task: Fill in: this test's call for "CCN(CC)C(=S)SC(=S)N(CC)CC" is ___
Result: Y

Task: Check the results log: what was the call for "CC(=O)N1C=Cc2c(c(C)c3c([nH]c4ccccc43)c2C)C1" ?
Result: Y

Task: Which outcome was entered for the molecule "N#Cc1nc(Nc2ccc(Cl)cc2)sc1N" in this test?
Result: Y

Task: Any idea what this test logged for "CC(=O)Oc1ccc2c(c1)Cc1cc(N3C(=O)C=CC3=O)ccc1-2" ?
Result: N

Task: Please share the test call associated with "CC(C)(N=Nc1ccc(Cl)cc1)[N+](=O)[O-]" .
Result: Y

----------
- testDescription: NCI Yeast Anticancer Drug Screen. Data for the rad50EPP+ strain (AID 151);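 also: 0% = growth of vehicle-treated control cultures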
- conditionSummary: S. cerevisiae rad50 mutant strain, at 1.2 µM, stronger effect = higher value
- Method: Growth inhibition of yeast strains with defined genetic alterations is measured as a screen for potential anti-cancer activity. Selected strains with alterations in DNA damage repair or cell cycle control were exposed to compounds and growth inhibition was measured relative to vehicle treated controls. The strain used in this assay is rad50EPP+
This is part of a sample that, as a whole, favours compounds with a hit. Of some 79,000 tested, about 15% had one in any assay.
reportedProperty: growth inhibition (%)
State just the number; it will be interpreted in %.

The following compounds have reported results that may help.
Task: Provide one value: measured growth inhibition of "CC1=NN(C(=O)c2ccccc2O)C(=O)/C1=C/c1ccco1"
Result: 9

Task: Answer with the recorded growth inhibition for the compound listed here: "CC(C)=CCc1c2c(c(O)c3c(=O)c(-c4ccc(O)c(O)c4)coc13)C=CC(C)(C)O2"
Result: -63

Task: Item "O=[N+]([O-])c1ccc(S(=O)(=O)Cc2ccccc2)c([N+](=O)[O-])c1" : provide growth inhibition
Result: 36

Task: Look up and report measured growth inhibition for this entry: O=C1CC(C(O)(C(F)(F)F)C(F)(F)Cl)CCC1C(O)(C(F)(F)F)C(F)(F)Cl (stereo not given)
Result: 12

Switching to the query record.
Task: Give recorded growth inhibition. "CCN(CC)CCNc1ccc2ncn3c4ccc(O)cc4c(=O)c1c23"
Result: -1

Reference source for all entries: PubChem BioAssay (NCI)
